Molecular target: Metabotropic glutamate receptor 8 (Rattus norvegicus)
Test: mGluR8 Gi/Go-coupled signaling modulation – cell-based, rat, thallium flux, HTS, primary screen (AID 488969)
Conditions: HEK293 rat mGluR8, GIRK (G protein-gated inwardly rectifying potassium channel) thallium flux, FluoZin2; at 10 µM; stronger effect = higher value; submaximal glutamate (EC20) added with thallium
In all, about 110,000 compounds were measured (“z-score”: median about -0.1, highest 2% from about 2 on). Many of the other results were omitted from the sample, so the highest values are more common in it than they were.
The threshold is inclusive: z-score of exactly 0.09 counts as TRUE; values below receive FALSE.

Here's what some known entries look like.
CN1/C(=C\C(=S)NC(=O)c2ccc([N+](=O)[O-])cc2)C(C)(C)c2ccccc21    TRUE
O=C(Nn1cnnc1)c1cc2cc(Br)ccc2oc1=O    TRUE
CCOCC(=O)Nc1nnc(C2CCCCC2)s1    FALSE

Given Nc1ccc(Sc2cnn(-c3ccccc3)c(=O)c2Cl)cc1 , state whether its z-score is at least 0.09.
FALSE

Request: Cc1ccc(NC(=O)N2CCC(C(N)=O)CC2)cc1
FALSE

Request: Cc1ccccc1-n1c(-c2csc3ccccc23)n[nH]c1=S
TRUE

Request: COCCN=C1Sc2nc3c(C)cccc3cc2CN1Cc1ccco1
FALSE

Request: C/C(=N\NC(=O)c1ccco1)c1cc2ccccc2o1
TRUE

Request: CC(C)C(=O)Nc1ccc(NC(=O)c2cc3ccccc3o2)cc1
FALSE

Request: COc1cccc(NC(=O)c2ccc(-n3cccn3)nc2)c1
TRUE

Request: COc1ccc(C(=O)Nc2ccc(Oc3ncnc4sc(-c5ccccc5)cc34)cc2)cc1OC
TRUE

Request: COC(=O)C1CCN(S(C)(=O)=O)CC1
FALSE

Request: Cc1nn(-c2ccccc2)c(Cl)c1C(=O)OC(C)C(=O)Nc1ccc2c(c1)OCO2 (configuration not stated)
FALSE

Request: N#Cc1nc(-c2ccccc2F)oc1N1CCCC1
FALSE

Request: Cc1ccc(C(=O)NC(=S)/C=C2\N(C)c3ccccc3C2(C)C)cc1
TRUE

Request: CC(C)c1[nH]nc2c1C(c1cccc(OC(=O)N3CCOCC3)c1)C(C#N)=C(N)O2 (configuration not stated)
FALSE

Request: COc1cc(C=O)c(Br)cc1OC1CCCC1
TRUE

Request: COc1ccccc1C(=O)Nc1ccc(Oc2ncnc3sc(-c4ccccc4)cc23)cc1
FALSE

Request: CC(C)NC(=O)c1cc2cc(Br)ccc2oc1=O
FALSE

Request: CCc1ccc(C(=O)N2CCCC2)s1
FALSE

Request: CSc1nnc(-c2ccccc2Cl)o1
FALSE
